Hello, the source for this data is BindingDB's records for doi:10.1016/0028-3908(94)90059-0, in case you need it.

METRIC_NAME: Ki (nM)
Supply the numeric figure in nM, leaving out any unit text.

Supply Ki measured with 5-hydroxytryptamine receptor 1D (Rattus norvegicus) for CSc1ccc2c(c1)C(N1CCN(C)CC1)Cc1ccccc1S2 (centres undefined) .
Sequence (P28565 whole entry): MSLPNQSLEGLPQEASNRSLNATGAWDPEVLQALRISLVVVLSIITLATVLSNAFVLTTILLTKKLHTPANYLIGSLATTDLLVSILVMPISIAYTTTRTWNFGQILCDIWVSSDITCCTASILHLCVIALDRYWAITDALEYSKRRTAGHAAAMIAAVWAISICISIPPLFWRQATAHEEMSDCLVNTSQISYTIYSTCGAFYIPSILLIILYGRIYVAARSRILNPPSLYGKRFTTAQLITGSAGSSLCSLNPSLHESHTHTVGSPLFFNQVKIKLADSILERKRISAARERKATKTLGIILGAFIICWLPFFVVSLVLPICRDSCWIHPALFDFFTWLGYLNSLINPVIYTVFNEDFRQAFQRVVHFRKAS
0.58

Send back 5-hydroxytryptamine receptor 1D (Rattus norvegicus) Ki of CN1CCN2c3ccccc3Cc3ccccc3[C@H]2C1 [MIANSERIN (+)] only.
30.2

Return reported Ki for target or system 5-hydroxytryptamine receptor 1D (Rattus norvegicus), item `COC(=O)[C@@H]1[C@H]2C[C@H]3c4[nH]c5ccccc5c4CCN3C[C@@H]2CC[C@@H]1O` .
30.9

Recall the reported Ki of `COc1ccc2[nH]cc(C3=CCNCC3)c2c1` when tested on 5-hydroxytryptamine receptor 1D (Rattus norvegicus).
46.8
